- assayed_system: T1, human high affinity trimeric IL-2 receptor (CD25/CD122/CD132) (human, UniProt P01589 22-272; P14784 27-551; P31785 23-369)
- T1 sequence 1: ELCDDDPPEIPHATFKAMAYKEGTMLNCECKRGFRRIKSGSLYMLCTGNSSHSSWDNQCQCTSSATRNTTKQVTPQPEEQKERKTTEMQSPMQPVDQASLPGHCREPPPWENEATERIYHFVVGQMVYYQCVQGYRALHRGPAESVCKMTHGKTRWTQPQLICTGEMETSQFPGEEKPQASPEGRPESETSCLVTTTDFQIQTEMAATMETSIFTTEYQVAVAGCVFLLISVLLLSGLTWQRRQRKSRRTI
- T1 sequence 2: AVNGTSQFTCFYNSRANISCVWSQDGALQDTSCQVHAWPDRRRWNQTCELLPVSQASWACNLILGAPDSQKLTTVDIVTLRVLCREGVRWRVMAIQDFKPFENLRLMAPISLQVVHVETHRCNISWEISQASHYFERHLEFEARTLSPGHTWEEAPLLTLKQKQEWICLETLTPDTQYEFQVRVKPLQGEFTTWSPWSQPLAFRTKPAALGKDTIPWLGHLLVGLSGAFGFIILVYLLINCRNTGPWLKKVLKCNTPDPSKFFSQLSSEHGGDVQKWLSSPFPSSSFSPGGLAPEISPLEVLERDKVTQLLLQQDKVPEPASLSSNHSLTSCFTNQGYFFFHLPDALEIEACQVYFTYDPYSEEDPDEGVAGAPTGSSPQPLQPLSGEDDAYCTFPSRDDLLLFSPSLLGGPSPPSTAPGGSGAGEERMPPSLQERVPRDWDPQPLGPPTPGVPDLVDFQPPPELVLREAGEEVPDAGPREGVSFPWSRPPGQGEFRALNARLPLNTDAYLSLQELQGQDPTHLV
- T1 sequence 3: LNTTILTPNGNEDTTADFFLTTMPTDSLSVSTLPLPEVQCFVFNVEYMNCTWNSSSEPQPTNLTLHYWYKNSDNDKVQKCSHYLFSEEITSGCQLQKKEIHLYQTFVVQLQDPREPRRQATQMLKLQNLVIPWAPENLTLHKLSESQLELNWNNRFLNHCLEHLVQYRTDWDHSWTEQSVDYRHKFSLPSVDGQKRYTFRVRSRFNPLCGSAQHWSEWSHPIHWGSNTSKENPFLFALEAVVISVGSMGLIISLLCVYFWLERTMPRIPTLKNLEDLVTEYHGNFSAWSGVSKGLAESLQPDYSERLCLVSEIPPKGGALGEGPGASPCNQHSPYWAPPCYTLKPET
- test_method_notes: cell-based or functional assay
readout_type: pSTAT5 ratio YT CD25/YT, dilution factor 64, upper table

A = MEH (ligand) cytokine: APTSSSTKKTQLQLEHLMLDLEMILNGINNYKNPKLTRMLTFKFYMPKKATELKHLQCLEEELKPLEEVLNLAQSKNFHLRPRDLISNINVIVLELKGSETTFMCEYADETATIVEFLNRWITFCHSIISTLT
B = VEH (ligand) cytokine: APTSSSTKKTQLQLEHLVLDLEMILNGINNYKNPKLTRMLTFKFYMPKKATELKHLQCLEEELKPLEEVLNLAQSKNFHLRPRDLISNINVIVLELKGSETTFMCEYADETATIVEFLNRWITFCHSIISTLT
Kindly identify the item with the lower pSTAT5 ratio YT CD25/YT, dilution factor 64, upper table figure among these two: A and B Field: selected label. Fill in the label of the entry you choose.
A
